# Target entity: GSK3b (GST-full length GSK3b) (Homo sapiens (Human))
# Assay comment: GSK3b TR-FRET kinase assay
# Format: biochemical
# Setup conditions: 1 nM GSK3b, 2 μM ATP, 30 minute preincubation; geometric mean; read-out: GSK3-B TR-FRET BIOCHEMICAL (TR-FRET); GMean; IC50
Collected IC50 values appear next to each entry.

Some solved entries appear below for comparison.
CCC1(c2cccc(S(=O)(=O)C(C)C)c2)C2=C(CC(C)(C)NC2=O)Nc2[nH]nc(C)c21 (stereo not drawn)    100 to 1000 nM
CC[C@@]1(c2cccc(-c3ccncc3F)c2)C2=C(CC(C)(C)NC2=O)Nc2n[nH]c(C)c21    ≤ 100 nM
CCC1(c2cccc(-c3cccnc3)c2)C2=C(CC(C)(C)CC2=O)Nc2n[nH]cc21 (stereo not drawn)    100 to 1000 nM
CCC1(c2cccc(-c3ccncc3C)c2)C2=C(CC(C)(COC)NC2=O)Nc2n[nH]cc21 (stereo not drawn) [Compound 948147]    ≤ 100 nM
CC1(C)CC(=O)C2=C(C1)Nc1n[nH]c(CCC(F)(F)F)c1C2(C)c1ccccc1 (stereo not drawn)    > 5000 nM
CCC1(c2cccc(-c3c(F)cncc3OC)c2)C2=C(CC(C)(C)NC2=O)Nc2n[nH]cc21 (stereo not drawn)    > 5000 nM
CCC1(c2cccc(S(=O)(=O)C3CC3)c2)C2=C(CC(C)(C)NC2=O)Nc2n[nH]c(C)c21 (stereo not drawn)    ≤ 100 nM
CC[C@@]1(c2cccc(C(F)(F)F)c2)C2=C(CCN(c3ccc(C)cc3)C2=O)Nc2n[nH]cc21    100 to 1000 nM

Attention now turns to another entry.
Q) Quickly give me recorded IC50 for CC[C@]1(c2cccc(-c3ccncc3F)c2)C2=C(CC(C)(C)NC2=O)Nc2n[nH]cc21
A) ≤ 100 nM

---

# Target entity: GSK3b (GST-full length GSK3b) (Homo sapiens (Human), UniProt P49841)
# Sequence (P49841 whole entry): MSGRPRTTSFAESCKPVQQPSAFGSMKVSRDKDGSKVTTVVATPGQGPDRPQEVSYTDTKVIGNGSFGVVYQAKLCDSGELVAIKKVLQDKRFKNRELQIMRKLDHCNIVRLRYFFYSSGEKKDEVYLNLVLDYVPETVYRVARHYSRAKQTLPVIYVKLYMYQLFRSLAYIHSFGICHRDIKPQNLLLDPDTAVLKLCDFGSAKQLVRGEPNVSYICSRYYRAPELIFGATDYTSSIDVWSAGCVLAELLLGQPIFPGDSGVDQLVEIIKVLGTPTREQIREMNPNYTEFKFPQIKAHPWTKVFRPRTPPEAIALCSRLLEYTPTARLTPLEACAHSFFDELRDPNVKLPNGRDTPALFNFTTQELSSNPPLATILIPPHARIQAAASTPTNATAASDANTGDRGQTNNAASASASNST
# Assay comment: GSK3b TR-FRET kinase assay
# Assay type: biochemical
# Setup conditions: 1 nM GSK3b, 2 μM ATP, 30 minute preincubation; geometric mean; read-out: GSK3-B TR-FRET BIOCHEMICAL (TR-FRET); GMean; IC50
Collected IC50 values appear next to each entry.

Q) Report its IC50 with GSK3b (GST-full length GSK3b) (Homo sapiens (Human), UniProt P49841) as the test system: CCC1(c2cccc(Cl)c2)C2=C(CC(C)(C)CC2=O)Nc2n[nH]c(Br)c21 (stereo not shown)
A) ≤ 100 nM

Q) Report its IC50 with GSK3b (GST-full length GSK3b) (Homo sapiens (Human), UniProt P49841) as the test system: CC[C@]1(c2cccc(S(=O)(=O)CC3CC3)c2)C2=C(CC(C)(C)NC2=O)Nc2n[nH]c(C(F)(F)F)c21
A) ≤ 100 nM

Q) Report its IC50 with GSK3b (GST-full length GSK3b) (Homo sapiens (Human), UniProt P49841) as the test system: CC1(c2ccccc2)C2=C(CC3(CCCC3)CC2=O)Nc2n[nH]cc21 (stereo not shown)
A) 100 to 1000 nM

Q) Report its IC50 with GSK3b (GST-full length GSK3b) (Homo sapiens (Human), UniProt P49841) as the test system: CC[C@]1(c2cccc(-c3ccnc4nc(C)ccc34)c2)C2=C(CC(C)(C)NC2=O)Nc2n[nH]cc21
A) 100 to 1000 nM

---

# Target entity: GSK3α (GST-full length GSK3α) (Homo sapiens (Human), UniProt P49840)
# Sequence (P49840 whole entry): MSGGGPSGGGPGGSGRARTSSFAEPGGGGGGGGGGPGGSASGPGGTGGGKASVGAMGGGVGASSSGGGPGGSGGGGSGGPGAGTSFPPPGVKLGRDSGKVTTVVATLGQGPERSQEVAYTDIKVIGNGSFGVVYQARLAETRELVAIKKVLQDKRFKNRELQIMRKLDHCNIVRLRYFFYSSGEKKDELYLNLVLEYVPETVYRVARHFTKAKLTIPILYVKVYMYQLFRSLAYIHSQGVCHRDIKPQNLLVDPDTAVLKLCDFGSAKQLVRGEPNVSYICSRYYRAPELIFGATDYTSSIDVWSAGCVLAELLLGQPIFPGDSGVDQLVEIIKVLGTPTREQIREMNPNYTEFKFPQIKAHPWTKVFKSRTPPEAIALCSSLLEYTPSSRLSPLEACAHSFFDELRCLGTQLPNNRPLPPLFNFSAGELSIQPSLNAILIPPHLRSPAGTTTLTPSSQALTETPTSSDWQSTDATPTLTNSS
# Assay comment: GSK3α TR-FRET kinase assay
# Assay type: biochemical
# Setup conditions: 1 nM GSK3α, 4 μM ATP, 30 minute preincubation; read-out: GSK3-A TR-FRET BIOCHEMICAL (TR-FRET); IC50
Property: IC50

Some solved entries appear below for comparison.
CC[C@]1(c2cccc(C(F)(F)F)c2)C2=C(CN(C)C2=O)Nc2n[nH]cc21 [Compound 945368]    > 5000 nM
Cc1cc(C)cc(C(=O)N2CC3(C2)CC2(CO3)C3=C(CC(C)(C)CC3=O)Nc3n[nH]cc32)c1 (stereo not shown) [Compound 947296]    ≤ 100 nM
CC1(C)CC(=O)C2=C(C1)Nc1n[nH]cc1C21CCN(S(=O)(=O)c2cccc(C(F)F)c2)CC1 [Compound 947264]    ≤ 100 nM
CC[C@]1(c2cccc(C(F)(F)F)c2)C2=C(C[C@@H](C(C)(C)C)NC2=O)Nc2n[nH]cc21 [Compound 945922]    ≤ 100 nM
CC1(C)CC(=O)C2=C(C1)Nc1n[nH]cc1[C@@]21CCOC2(CCCC2)C1 [Compound 907326]    100 to 1000 nM

Q) Quickly give me recorded IC50 for CC[C@]1(c2cccc(C(F)(F)F)c2)C2=C(CCN(C)C2=O)Nc2n[nH]cc21 [Compound 917283]
A) > 5000 nM

Q) Quickly give me recorded IC50 for CC[C@@]1(c2cccc(C(F)(F)F)c2)C2=C(CCN(C(C)C)C2=O)Nc2n[nH]cc21 [Compound 857336]
A) ≤ 100 nM

---

# Target entity: GSK3b (GST-full length GSK3b) (Homo sapiens (Human), UniProt P49841)
# Assay comment: GSK3b TR-FRET kinase assay
# Format: biochemical
# Setup conditions: 1 nM GSK3b, 2 μM ATP, 30 minute preincubation, Table 16; read-out: GSK3-B TR-FRET BIOCHEMICAL (TR-FRET); IC50
Property: IC50

Some solved entries appear below for comparison.
CCC1(c2cccc(-c3cnn(C)c3F)c2)C2=C(CC(C)(C)NC2=O)Nc2n[nH]cc21 (stereo not drawn)    > 5000 nM
CC[C@]1(c2cccc(-c3cnn(CC(=O)N(C)C)c3)c2)C2=C(CC(C)(C)NC2=O)Nc2n[nH]cc21    > 5000 nM
CC[C@]1(c2cc(N(C)C(C)=O)ccc2F)C2=C(CC(C)(C)CC2=O)Nc2n[nH]c(C)c21    > 5000 nM

Q) Report its IC50 with GSK3b (GST-full length GSK3b) (Homo sapiens (Human), UniProt P49841) as the test system: CC[C@]1(c2cccc(-c3cnn(C)c3)c2)C2=C(CC(C)(C)NC2=O)Nc2n[nH]c(C(F)F)c21
A) > 5000 nM

Q) Report its IC50 with GSK3b (GST-full length GSK3b) (Homo sapiens (Human), UniProt P49841) as the test system: CCC1(c2cccc(N(C)c3ccnc(F)c3)c2)C2=C(CC(C)(C)CC2=O)Nc2n[nH]cc21 (stereo not drawn)
A) ≤ 100 nM

Q) Report its IC50 with GSK3b (GST-full length GSK3b) (Homo sapiens (Human), UniProt P49841) as the test system: O=C1C[C@@H](C(F)(F)F)CC2=C1C1(CCOCC1)c1c[nH]nc1N2
A) 100 to 1000 nM

Q) Report its IC50 with GSK3b (GST-full length GSK3b) (Homo sapiens (Human), UniProt P49841) as the test system: CCC1(c2cccc(-c3cc(C)nnc3C)c2)C2=C(CC(C)(C)NC2=O)Nc2n[nH]c(C(F)(F)F)c21 (stereo not drawn)
A) ≤ 100 nM

Q) Report its IC50 with GSK3b (GST-full length GSK3b) (Homo sapiens (Human), UniProt P49841) as the test system: CC1OCCC12C1=C(CC(C)(C)CC1=O)Nc1n[nH]cc12 (stereo not drawn)
A) > 5000 nM

Q) Report its IC50 with GSK3b (GST-full length GSK3b) (Homo sapiens (Human), UniProt P49841) as the test system: CC[C@]1(c2cccc(-c3cc(C)ncc3F)c2)C2=C(CC(C)(C)NC2=O)Nc2n[nH]c(C(F)(F)F)c21
A) 1000 to 5000 nM

---

Collected IC50 values appear next to each entry.
# Target entity: GSK3α (GST-full length GSK3α) (Homo sapiens (Human), UniProt P49840)
# Assay comment: GSK3α TR-FRET kinase assay
# Type: biochemical
# Setup conditions: 1 nM GSK3α, 4 μM ATP, 30 minute preincubation, Table 16; read-out: GSK3-A TR-FRET BIOCHEMICAL (TR-FRET)

Some solved entries appear below for comparison.
CC1(C)CC(=O)C2=C(C1)Nc1n[nH]cc1C21CCN(S(=O)(=O)c2cnc3n2CCC3)CC1 [Compound 947467]    ≤ 100 nM
CC1(C)CC(=O)C2=C(C1)Nc1n[nH]cc1C21CCN(S(=O)(=O)c2cc(F)ccn2)CC1 [Compound 947262]    100 to 1000 nM
CCC1(c2cccc(-c3cnnn3C(C)C)c2)C2=C(CC(C)(C)CC2=O)Nc2n[nH]cc21 (stereo not shown) [Compound 947397]    ≤ 100 nM

Attention now turns to another entry.
Q) Quickly give me recorded IC50 for O=C1CC2(CCCCC2)CC2=C1C1(CCOCC1)c1c[nH]nc1N2 [Compound 893307]
A) ≤ 100 nM
